- Test system: in vivo angiogenesis, blood vessel count
- test method notes: reduction of blood vessel formation in vivo – HTS, in vivo study (AID 732);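 further: zebrafish embryos dosed at one day post fertilization; 0% = reference inhibitor and 100% = plate mean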
- assay setup: active compounds read low;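 tested at 30 µM in the well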
Answer each item with its documented vessel count % control.
One number for each entry, in %.

molecule	display unit	vessel count % control
Cn1ccc2cc3c(cc21)CCN3C(=O)Nc1cccnc1	%	88
Ic1ccccc1CNC1C2CCN(CC2)C1C(c1ccccc1)c1ccccc1 (stereo not given)	%	103
O=C(O)Cc1c[nH]c2ccc(O)cc12	%	92.5
CCn1cnc2c(Nc3cccc(Cl)c3)nc(N[C@@H]3CCCC[C@@H]3N)nc21	%	88.4
NCCCP(=O)(O)O	%	91.6
Cc1c2ccncc2c(C)c2c1[nH]c1ccccc12	%	110
Clc1ccc2c(c1)C(N1CCNCC1)=Nc1ccccc1O2	%	98.2
O=C(O)Cc1ccc(O)c(O)c1	%	107

Quick batch: vessel count % control for everything below.
1. O=C(CCCN1CCC(O)(c2ccc(Cl)cc2)CC1)c1ccc(F)cc1
2. CN1CCC(=C2c3ccccc3CC(=O)c3sccc32)CC1
3. Cc1cccc(C)c1OCC(N)C(C)C (stereo not given)
4. O=Nc1c(-c2c(O)[nH]c3c(Cl)cc(Cl)cc23)[nH]c2ccc(Br)cc12
5. CCN1C(=O)C=CC1=O
6. Cc1cc(C(C)(C)C)cc(C)c1CC1=NCCN1
7. CCCNCC(O)COc1ccccc1C(=O)CCc1ccccc1 (stereo not given)

Ans:
77.9
105
112
126
104
101
102

Quick batch: vessel count % control for everything below.
1. CCn1c(=O)[nH]c2cc(Cl)c(Cl)cc21
2. CCCCCC(O)c1cccc(OCc2ccc3ccccc3n2)c1 (stereo not given)
3. COc1ccc2cc([C@H](C)C(=O)O)ccc2c1

Ans:
1: 87.7; 2: 83.4; 3: 101

Quick batch: vessel count % control for everything below.
1. CCCC(=O)NCCc1c2n(c3ccc(OC)cc13)CCCc1ccccc1-2
2. COc1ccc(CCNC[C@@H](O)c2ccc(O)cc2)cc1OC
3. C[C@@H]1O[C@H](C[N+](C)(C)C)C[C@H]1O

Ans:
[92.5, 105, 104]
